Reference source: paper PMC10466926

biological target: IsdH linker-NEAT3 (Staphylococcus aureus Mu50, UniProt Q931P4); experiment: SPR; settings: both partners purified
Sequence (Q931P4 476-664): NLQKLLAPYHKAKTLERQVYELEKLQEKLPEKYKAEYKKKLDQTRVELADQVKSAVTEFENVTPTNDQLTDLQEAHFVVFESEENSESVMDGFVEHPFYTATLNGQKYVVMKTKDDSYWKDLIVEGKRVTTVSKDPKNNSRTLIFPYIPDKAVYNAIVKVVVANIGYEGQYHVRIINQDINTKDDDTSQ
Flag rule - koff less than 0.001 s⁻¹ flags Fulfilled; the remaining entries get Not fulfilled.

{"binder": "VHH6 E104A (VHH, source: E. coli BL21(DE3), purified as the WT (Ni-NTA, SEC)) VHH: ELQLVESGGGLVQPGGSLSLSCEVSGFSFDDVDNFIIAWFRQAPGKEREGVSFLRKYDMSTYYAESVKGRFTISSDNARDTVYLQMTNLKPEDTAVYYCALDRAGFVFEQGMDFWGKGTQVTVSS", "answerLabel": "Not fulfilled"}
{"binder": "VHH6 F108A (VHH, source: E. coli BL21(DE3), purified as the WT (Ni-NTA, SEC)) VHH: ELQLVESGGGLVQPGGSLSLSCEVSGFSFDDVDNFIIAWFRQAPGKEREGVSFLRKYDMSTYYAESVKGRFTISSDNARDTVYLQMTNLKPEDTAVYYCALDREGFVAEQGMDFWGKGTQVTVSS", "answerLabel": "Fulfilled"}
{"binder": "VHH6 F106A (VHH, source: E. coli BL21(DE3), purified as the WT (Ni-NTA, SEC)) VHH: ELQLVESGGGLVQPGGSLSLSCEVSGFSFDDVDNFIIAWFRQAPGKEREGVSFLRKYDMSTYYAESVKGRFTISSDNARDTVYLQMTNLKPEDTAVYYCALDREGAVFEQGMDFWGKGTQVTVSS", "answerLabel": "Fulfilled"}
{"binder": "VHH6 Y57A (VHH, source: E. coli BL21(DE3), purified as the WT (Ni-NTA, SEC)) VHH: ELQLVESGGGLVQPGGSLSLSCEVSGFSFDDVDNFIIAWFRQAPGKEREGVSFLRKADMSTYYAESVKGRFTISSDNARDTVYLQMTNLKPEDTAVYYCALDREGFVFEQGMDFWGKGTQVTVSS", "answerLabel": "Not fulfilled"}
{"binder": "VHH6 R55A (VHH, source: E. coli BL21(DE3), purified as the WT (Ni-NTA, SEC)) VHH: ELQLVESGGGLVQPGGSLSLSCEVSGFSFDDVDNFIIAWFRQAPGKEREGVSFLAKYDMSTYYAESVKGRFTISSDNARDTVYLQMTNLKPEDTAVYYCALDREGFVFEQGMDFWGKGTQVTVSS", "answerLabel": "Not fulfilled"}
{"binder": "VHH6 D33A (VHH, source: E. coli BL21(DE3), purified as the WT (Ni-NTA, SEC)) VHH: ELQLVESGGGLVQPGGSLSLSCEVSGFSFDDVANFIIAWFRQAPGKEREGVSFLRKYDMSTYYAESVKGRFTISSDNARDTVYLQMTNLKPEDTAVYYCALDREGFVFEQGMDFWGKGTQVTVSS", "answerLabel": "Fulfilled"}
{"binder": "VHH6 Y62A (VHH, source: E. coli BL21(DE3), purified as the WT (Ni-NTA, SEC)) VHH: ELQLVESGGGLVQPGGSLSLSCEVSGFSFDDVDNFIIAWFRQAPGKEREGVSFLRKYDMSTAYAESVKGRFTISSDNARDTVYLQMTNLKPEDTAVYYCALDREGFVFEQGMDFWGKGTQVTVSS", "answerLabel": "Not fulfilled"}
{"binder": "VHH6 V107A (VHH, source: E. coli BL21(DE3), purified as the WT (Ni-NTA, SEC)) VHH: ELQLVESGGGLVQPGGSLSLSCEVSGFSFDDVDNFIIAWFRQAPGKEREGVSFLRKYDMSTYYAESVKGRFTISSDNARDTVYLQMTNLKPEDTAVYYCALDREGFAFEQGMDFWGKGTQVTVSS", "answerLabel": "Not fulfilled"}
